Target: JAK3 (Homo sapiens)
Construct: endogenous in cells; mixed lysate 1:2
Sequence (P52333 1-1124): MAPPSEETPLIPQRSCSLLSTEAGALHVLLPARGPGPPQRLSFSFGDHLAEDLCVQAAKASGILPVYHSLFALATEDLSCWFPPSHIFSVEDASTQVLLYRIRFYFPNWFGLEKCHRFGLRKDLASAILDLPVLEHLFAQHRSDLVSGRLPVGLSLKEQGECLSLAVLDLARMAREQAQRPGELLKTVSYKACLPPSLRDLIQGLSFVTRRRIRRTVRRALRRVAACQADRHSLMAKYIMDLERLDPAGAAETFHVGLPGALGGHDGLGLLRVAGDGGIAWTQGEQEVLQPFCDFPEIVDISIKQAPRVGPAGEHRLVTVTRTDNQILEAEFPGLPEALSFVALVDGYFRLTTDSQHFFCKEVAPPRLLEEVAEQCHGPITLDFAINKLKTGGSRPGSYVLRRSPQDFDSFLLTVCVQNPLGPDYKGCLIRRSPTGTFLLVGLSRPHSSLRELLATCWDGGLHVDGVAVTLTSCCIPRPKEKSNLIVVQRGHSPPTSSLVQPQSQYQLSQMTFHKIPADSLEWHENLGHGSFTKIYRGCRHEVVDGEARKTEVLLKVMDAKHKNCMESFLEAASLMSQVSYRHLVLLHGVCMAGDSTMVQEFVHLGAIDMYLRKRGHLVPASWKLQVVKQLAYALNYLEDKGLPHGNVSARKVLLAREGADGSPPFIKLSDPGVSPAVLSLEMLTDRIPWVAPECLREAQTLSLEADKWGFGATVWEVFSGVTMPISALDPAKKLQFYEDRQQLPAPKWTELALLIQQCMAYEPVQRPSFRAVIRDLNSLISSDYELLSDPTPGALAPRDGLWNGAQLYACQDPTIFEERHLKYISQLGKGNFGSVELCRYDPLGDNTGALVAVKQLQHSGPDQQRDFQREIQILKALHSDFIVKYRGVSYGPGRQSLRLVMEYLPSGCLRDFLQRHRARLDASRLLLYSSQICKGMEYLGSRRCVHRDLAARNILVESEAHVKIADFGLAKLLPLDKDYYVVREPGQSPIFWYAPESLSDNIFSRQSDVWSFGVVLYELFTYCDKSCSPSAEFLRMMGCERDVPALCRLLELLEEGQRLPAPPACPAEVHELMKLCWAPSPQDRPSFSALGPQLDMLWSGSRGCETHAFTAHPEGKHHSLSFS
Experiment: Kinobeads assay with immunodetection, JAK3
Settings: Kinobeads assay, mixed Molt4/Ramos lysate; read-out: Inhibition values (IC50) JAK3
pIC50: −log10 of the molar value.
Assay Endpoint: pIC50

Cc1cnc(Nc2cnn(CC(F)F)c2)nc1NC[C@H]1CCN(C(=O)CC#N)C1 [Example 129]    6.00 to 7.00

Dear colleague, I am looking for the recorded pIC50 of the following compound: Cc1cnc(Nc2cnn(C)c2)nc1NC[C@H]1CCCN1CCC#N [Example 108]
6.00 to 7.00

// repeat for CNC(=O)Cn1cc(Nc2ncc(Cl)c(NC[C@H]3CCCN3S(C)(=O)=O)n2)cn1 [Example 67] and report
> 7.00
